Test system: NCI-H23 lung
Test: NCI-60 one-dose screen, 48 h (100 = growth as untreated, 0 = no growth, -100 = all killed)
Conditions: 10 µM
About 83,000 compounds went through this panel and 20% of them were active in at least one assay; those are over-represented in the sample as a whole.
quantity_measured: growth (%)

compound	quantity_measured	assay_result
O=C(COc1ccc(Cl)cc1Cl)Oc1coc(CSc2nc3ccccc3s2)cc1=O	growth	94.5
COc1ccc(C(=O)n2nc(CC(=O)NCc3ccccc3)nc2N)cc1	growth	108
Cc1cc(OI)c(C(C)C)cc1-c1cc(C(C)C)c(OI)cc1C	growth	94.9
Cc1cc(O)c(C2=NN(c3ccc(S(N)(=O)=O)cc3)C(c3ccc(N(C)C)cc3)C2)c(C)c1Cl (stereo not given)	growth	79.3
COc1cc(-c2cc(/C=C/C(C)=O)[nH]n2)cc(OC)c1OC	growth	87.7
O=C(NC1CCN(Cc2ccccc2)CC1)c1cc(-c2ccncc2)nc2ccc(Cl)cc12	growth	38.3
COc1ccc(C2=NNC(c3sc(Cl)nc3Cl)C2)cc1 (stereo not given)	growth	93.7
COc1ccc(/C(=C/c2cc(OC)c(OC)cc2[N+](=O)[O-])C(=O)O)cc1	growth	103
COc1cc(-c2nc3cc(Cl)c(Cl)cc3[nH]2)ccc1OCC(=O)NN	growth	92.8
CCc1cc2n(n1)-c1ncc(C(=O)OC)cc1Oc1ccccc1-2	growth	104

###

Listing of entries alongside the reported growth.
Tested on: UO-31 renal
Assay: NCI-60 one-dose screen, 48 h (100 = growth as untreated, 0 = no growth, -100 = all killed)
Details: 10 µM
This is part of a sample that, as a whole, favours compounds with a hit. Of some 83,000 tested, about 20% had one in any assay. The source made the active and inactive calls. How the source made its calls: active means growth percent below 10; inactive means the rest.
quantity_measured: growth

compound	quantity_measured	assay_result
CC(C)(C)c1ccc(OCCCCCCN2CCNCC2)cc1	growth	72.8% (inactive)
C=C[C@]1(C)C=C2C(=O)[C@@]3(O)OC(=O)[C@@]4(CCCC(C)(C)[C@H]34)[C@@]2(O)CC1	growth	-99.4% (active)
COc1cc(-c2nc3ccc(C)cc3[nH]2)ccc1OCC(=O)N=Nc1c(O)[nH]c2ccccc12	growth	95.9% (inactive)
COc1ccc(Nc2nc(NCc3ccccc3)c3ccccc3n2)cc1	growth	58.9% (inactive)
COc1ccc(C2CC(c3ccc(-c4ccccc4)cc3)=NN2c2ccc(S(N)(=O)=O)cc2)cc1 (stereo unspecified)	growth	50% (inactive)
COc1ccc2oc(=O)cc(C3c4ccc([nH]4)C(c4cc(=O)oc5ccc(OC)cc45)c4ccc([nH]4)C(c4cc(=O)oc5ccc(OC)cc45)c4ccc([nH]4)C(c4cc(=O)oc5ccc(OC)cc45)c4ccc3[nH]4)c2c1 (stereo unspecified)	growth	-44.9% (active)
COc1ccc(-c2ccc(-c3ccc(C(=N)N)c(F)c3)s2)cc1	growth	-86.8% (active)
Nc1ncc(-c2ccc(C(F)(F)F)cc2)c(NC2CCCCCC2)n1	growth	23.6% (inactive)
COc1cccc2c1O/C(=C\c1ncc([N+](=O)[O-])n1C)C2=O	growth	-34.7% (active)
Cc1cc(Cl)ccc1Nc1nc(C(F)(F)F)ccc1C(=O)N/N=C/c1ccccc1Cl	growth	7.23% (active)
C[C@@H]1N=C(c2ccc(Br)cc2)Nc2nc3ccccn3c2C1=O	growth	62% (inactive)
CN(C)Cc1cccs1	growth	82.9% (inactive)
COc1cc(OC)cc(N2CCN(C(=O)Nc3nc4cc(F)ccc4nc3OC)CC2)c1	growth	34.5% (inactive)
CCCCCN(CCCCC)C(C)C(O)c1ccc2cc(Cl)c3ccccc3c2c1 (stereo unspecified)	growth	70.6% (inactive)
COc1ccc(C(C)=O)cc1N1C(=O)C2C(C1=O)C1(c3ccccc3)C(=O)C2(c2ccccc2)C(c2ccc(C)cc2)=C1c1ccc(C)cc1 (stereo unspecified)	growth	-4.71% (active)
O=CNc1c(Cl)cc2c(c1Cl)Cc1cc([N+](=O)[O-])ccc1-2	growth	71.7% (inactive)
CCOC(=O)c1ccc(NC(=O)Nc2nncs2)cc1	growth	34.1% (inactive)
O=C1NN(c2ccccc2)C(c2cccnc2)=N/C1=C\c1cccnc1	growth	82.7% (inactive)
C[n+]1c(/C=C/c2c[nH]c3ccccc23)ccc2ccccc21	growth	60.5% (inactive)
N#CN1CC[C@H](C(=O)Nc2ncc(-c3ccncc3)s2)C1	growth	8.4% (active)
O=C(N/N=c1/ccoc2cccnc12)N1CCN(c2ncccn2)CC1	growth	24.8% (inactive)
COc1cc(CSc2nc3ccc(C)cc3c(=O)n2-c2ccccc2)cc(OC)c1OC	growth	24.1% (inactive)
Cc1cn(C(=O)/C(Cl)=C(/Cl)C(=O)O)c2ccccc12	growth	59.1% (inactive)
FC(F)(F)c1ccc(-c2cnc(Cl)nc2NC2CCCCCC2)cc1	growth	23.5% (inactive)
O=NN(CCCl)C(=O)Nc1ccc(NC(=O)N(CCCl)N=O)cc1	growth	96.6% (inactive)
O=[N+]([O-])c1ccc(-c2nc(Cl)c3c(n2)CCCC3)o1	growth	97.8% (inactive)
COc1ccc(-c2[nH]ncc2-c2cc(OC)c(OC)c(OC)c2)cc1	growth	11.6% (inactive)
CC1(C)CC(=O)c2c(nc3ccc(Cl)cc3c2-c2ccccc2)C1	growth	66% (inactive)
Cc1cccc2c1O/C(=C\c1ncc([N+](=O)[O-])n1C)C2=O	growth	-38.9% (active)
CCOC(=O)Nc1ccc2c(c1)C(=O)N(CCOC)c1ccccc1O2	growth	62.2% (inactive)
C#C[C@]1(O)CC[C@H]2[C@@H]3CC[C@H]4CC(F)(F)CC[C@]4(C)[C@H]3CC[C@@]21C	growth	102% (inactive)
Nc1c(C(=O)Nc2ccccc2F)sc2nc3c(cc12)C(=O)CCC3	growth	76% (inactive)
COc1cc(-c2cc(/C=C/C(C)=O)[nH]n2)cc(OC)c1OC	growth	52.4% (inactive)
FC(F)(F)c1ccc(-c2cnc(Br)nc2NC2CCCCCC2)cc1	growth	34.7% (inactive)
COc1ccc(C(=O)/C=C/c2cc(-c3ccc4c(c3)OCO4)n[nH]2)cc1OC	growth	44.4% (inactive)
CCc1cc2n(n1)-c1ncc(C(=O)OC)cc1Oc1ccccc1-2	growth	88.8% (inactive)
CC(=O)Nc1nc(C)c(C(=O)NNC=O)s1	growth	100% (inactive)
O=C(NNc1nc(N2CCCC2)nc(N2CCCC2)n1)c1ccccc1	growth	81.7% (inactive)
O=C(c1ccc(Cl)cc1)c1no[n+]([O-])c1C(=O)c1ccc(Cl)cc1	growth	-94.9% (active)
O=C(Nc1cccc(Cl)c1)OCC(COC(=O)Nc1cccc(Cl)c1)(COC(=O)Nc1cccc(Cl)c1)[N+](=O)[O-]	growth	30.9% (inactive)
COc1ccc2nc(C)cc(Nc3ccc(Cl)cc3)c2c1	growth	91.1% (inactive)
